assay: splicing luciferase reporter signal modulators, primary screen, spliceosome inhibition project, cell-based, HEK293, splice +/- reporter (AID 1101);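 further: HEK293 cells carrying a splicing-competent luciferase reporter gene; test concentration not given here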
runParameters: luminescence, 24 h, higher = more signal, called active from +8 up or from −8 down
Here, each record is paired with measured z-score data.
Form rule: numeric answer, no unit written next to it.

Sample records with z-score:
compound	recordedResult
O=C1[C@@]23C=C(Br)[C@H](C[C@@H]2CCOC3)[C@@]12CO2	0.149
C=C[C@H](OC)[C@@H](OC(=O)Nc1ccc(OC)cc1)c1ccc(O)c(F)c1	-1.27
O=C(CS)NCCCCCCNC(=O)[C@@H]1C[C@@H]2C(=O)NCC(=O)N2[C@@H]1c1cccc(OCCO)c1	0.288
CCC[C@@H]1C[C@@]1(CCC)[C@@H](NC(=O)c1ccccc1)c1cccc(Cl)c1	0.444
CN1C(=O)C2C=CC(C(O)c3ccccc3)N(N(c3ccccc3)c3ccccc3)C2C1=O (centres undefined)	0.597

What value of z-score has been recorded for this entry: CC(=O)n1cc(C(O)C2C=CC3C(=O)N(c4ccccc4)C(=O)C3N2Nc2ccc([N+](=O)[O-])cc2)c2ccccc21 (centres undefined)
0.138

What value of z-score has been recorded for this entry: CC(=O)NCCCC[C@@H]1NC(=O)[C@@H]2C[C@H](C(=O)NCCCCCNC(=O)CS)[C@H](c3cccc(OCCO)c3)N2C1=O
-2.01

What value of z-score has been recorded for this entry: CCOC(=O)C[C@H]1[C@H](OC(=O)c2cc3ccccc3oc2=O)[C@@H](NC(=O)c2ccccc2)c2cc(OCCCO)ccc2N1C(=O)c1ccc2ccccc2n1
0.0189

What value of z-score has been recorded for this entry: O=C1O[C@@H](c2ccccc2)[C@@H](c2ccccc2)N2[C@@H](c3ccccc3OCCO)[C@]3(C(=O)Nc4ccc(C#CC5=CCCCC5)cc43)[C@@H](C(=O)N3CCCCCCC3)[C@H]12
-1.06

What value of z-score has been recorded for this entry: C=C(CCCC)/C(=C/C[C@H](OC(=O)c1ccncc1)c1ccccc1OCCO)c1cnc2ccccc2c1
-0.292

What value of z-score has been recorded for this entry: C=CCNC(=O)[C@@H]1[C@H]2C(=O)O[C@H](c3ccccc3)[C@H](c3ccccc3)N2[C@H](c2ccc(O)cc2)[C@@]12C(=O)N(C(=O)OCCOC)c1ccc(C#CCNC(N)=O)cc12
-0.273

What value of z-score has been recorded for this entry: C=C(CCCC)/C(=C/C[C@H](OC(C)=O)c1ccccc1OCCO)c1cc(C(=O)OC)ccc1OC
-0.616

What value of z-score has been recorded for this entry: NC(=O)NCC#Cc1ccc2c(c1)[C@]1(C(=O)N2)[C@H](c2ccccc2OCCO)N2[C@H](c3ccccc3)[C@H](c3ccccc3)OC(=O)[C@H]2[C@@H]1C(=O)Nc1nc2ccccc2s1
0.663

What value of z-score has been recorded for this entry: C=CCC(OC(C)=O)[C@@H]1[C@@H](N(Cc2ccc(-c3cccc(C(F)(F)F)c3)o2)C(=O)c2ccc(C)cc2)c2cc(OCCCO)ccc2N1C(=O)Cc1ccc2ccccc2c1 (some centres undefined)
-0.337
